# method_notes: activity coefficient (dimensionless); of the first substance listed, at infinite dilution; xn = mol fraction of the nth substance listed
# setup_conditions: 313 K; 87.4 kPa; Liquid; Chromatography; x1 = 0
Listed molecules paired with reported activity coefficient
quantity: activity coefficient

INSERT INTO measurements (molecule, readout_value) VALUES
  ('CCCC=O [butanal] + O=S(=O)([N-]S(=O)(=O)C(F)(F)F)C(F)(F)F.O=S(=O)([N-]S(=O)(=O)C(F)(F)F)C(F)(F)F.c1ccc2cc(C[N+]3(CCCCCCCCC[N+]4(Cc5ccc6ccccc6c5)CCCC4)CCCC3)ccc2c1', 0.448),
  ('ClC(Cl)(Cl)Cl [tetrachloromethane] + O=S(=O)([N-]S(=O)(=O)C(F)(F)F)C(F)(F)F.O=S(=O)([N-]S(=O)(=O)C(F)(F)F)C(F)(F)F.c1ccc2cc(C[N+]3(CCCCCCCCC[N+]4(Cc5ccc6ccccc6c5)CCCC4)CCCC3)ccc2c1', 1.45),
  ('CCOC(C)=O [ethyl acetate] + O=S(=O)([N-]S(=O)(=O)C(F)(F)F)C(F)(F)F.O=S(=O)([N-]S(=O)(=O)C(F)(F)F)C(F)(F)F.c1ccc2cc(C[N+]3(CCCCCCCCC[N+]4(Cc5ccc6ccccc6c5)CCCC4)CCCC3)ccc2c1', 0.541),
  ('C1COCCO1 [1,4-dioxane] + O=S(=O)([N-]S(=O)(=O)C(F)(F)F)C(F)(F)F.O=S(=O)([N-]S(=O)(=O)C(F)(F)F)C(F)(F)F.c1ccc2cc(C[N+]3(CCCCCCCCC[N+]4(Cc5ccc6ccccc6c5)CCCC4)CCCC3)ccc2c1', 0.382);
